System: U87MG cells
Assay: Antiproliferative activity, 2D monolayer, SRB assay
Assay type: cell-based, human
Conditions: IC50 dark / IC50 420 nm irradiated, 2D
Answer not fulfilled if PI (phototoxicity index) 2D is under 20, and fulfilled if it is 20 or more.

1) Cc1ccc(-c2cc3[n+]4c(c2)-c2cccc[n+]2[Ir-3]42([Cl])([c]4ccccc4-c4n(C)c5ccccc5[n+]42)[n+]2ccccc2-3)cc1.F[P-](F)(F)(F)(F)F [Ir6] : fulfilled
2) Cc1ccc(-c2cc3[n+]4c(c2)-c2cccc[n+]2[Ir-3]42([Cl])([c]4c(ccc5c4OCO5)-c4n(C)c5ccccc5[n+]42)[n+]2ccccc2-3)cc1.F[P-](F)(F)(F)(F)F [Ir9] : not fulfilled
3) COC(=O)c1ccc2c(c1)[n+]1c(n2Cc2ccc(C(F)(F)F)cc2)-c2cccc[c]2[Ir-3]123([Cl])[n+]1ccccc1-c1cc(-c4ccc(C)cc4)cc([n+]12)-c1cccc[n+]13.F[P-](F)(F)(F)(F)F [Ir10] : not fulfilled
4) Cc1ccc(-c2cc3[n+]4c(c2)-c2cccc[n+]2[Ir-3]42([Cl])([c]4ccsc4-c4n(C)c5ccccc5[n+]42)[n+]2ccccc2-3)cc1.F[P-](F)(F)(F)(F)F [Ir8] : not fulfilled
5) Cc1ccc(-c2cc3[n+]4c(c2)-c2cccc[n+]2[Ir-3]42([Cl])([c]4cc5ccccc5cc4-c4n(Cc5ccc(C(F)(F)F)cc5)c5ccccc5[n+]42)[n+]2ccccc2-3)cc1.F[P-](F)(F)(F)(F)F [Ir3] : fulfilled

---

Test system: U87MG spheroids
Assay: Antiproliferative activity, 3D spheroids, CellTiter-Glo 3D assay
Format: cell-based, human
Conditions: Homo sapiens, U-87 MG, light or radiation study; U87MG 3D spheroids; 90 min treatment, 30 min blue light 420 nm 58 W m-2, 70 h drug-free; CellTiter-Glo 3D; read-out: IC50 3D Irradiated
pIC50: −log10 of the molar value.
RECORDED_ENDPOINT: pIC50

1. Cn1nnc2c(C(N)=O)ncn2c1=O [Temozolomide, reference compound] : 4.02

---

// reported PI (phototoxicity index) 2D for each item listed
Test system: U87MG cells
Experiment: Antiproliferative activity, 2D monolayer, SRB assay
Type: cell-based, human
Settings: IC50 dark / IC50 420 nm irradiated, 2D
RECORDED_ENDPOINT: PI (phototoxicity index) 2D

1. CCCCn1c2[n+](c3cc(C(=O)OC)ccc31)[Ir-3]13([Cl])([c]4ccccc4-2)[n+]2ccccc2-c2cc(-c4ccc(C)cc4)cc([n+]21)-c1cccc[n+]13.F[P-](F)(F)(F)(F)F : 41
2. Cc1ccc(-c2cc3[n+]4c(c2)-c2cccc[n+]2[Ir-3]42([Cl])([c]4ccsc4-c4n(Cc5ccc(C(F)(F)F)cc5)c5ccccc5[n+]42)[n+]2ccccc2-3)cc1.F[P-](F)(F)(F)(F)F : 3.5
3. Cc1ccc(-c2cc3[n+]4c(c2)-c2cccc[n+]2[Ir-3]42([Cl])([c]4ccccc4-c4n(Cc5ccc(C(F)(F)F)cc5)c5ccccc5[n+]42)[n+]2ccccc2-3)cc1.F[P-](F)(F)(F)(F)F : 16
4. Cc1ccc(-c2cc3[n+]4c(c2)-c2cccc[n+]2[Ir-3]42([Cl])([c]4c(ccc5c4OCO5)-c4n(Cc5ccc(C(F)(F)F)cc5)c5ccccc5[n+]42)[n+]2ccccc2-3)cc1.F[P-](F)(F)(F)(F)F : 60
5. Cc1ccc(-c2cc3[n+]4c(c2)-c2cccc[n+]2[Ir-3]42([Cl])([c]4cc5ccccc5cc4-c4n(C)c5ccccc5[n+]42)[n+]2ccccc2-3)cc1.F[P-](F)(F)(F)(F)F : 4.7
